# tested_on: Single-stranded DNA-binding protein (Escherichia coli (strain K12))
# run_description: E. coli SSB displacement from DNA, counter-screen for HCV NS3 helicase inhibitor project, biochemical, fluorescence polarization, NIH Clinical Collection (AID 743271)
# particulars: stronger effect = higher value, concentration not given here
Listing of entries alongside the reported inhibition.
property_measured: inhibition (%)

INSERT INTO measurements (molecule, property_measured, test_value) VALUES
  ('CSc1ccc2c(c1)N(CCC1CCCCN1C)c1ccccc1S2 (stereo not drawn)', 'inhibition', 0.29),
  ('O[C@@H](c1cc(C(F)(F)F)nc2c(C(F)(F)F)cccc12)[C@H]1CCCCN1', 'inhibition', -2),
  ('Cc1ccc(C)c(OCCCC(C)(C)C(=O)O)c1', 'inhibition', 1.05),
  ('OC(Cn1cncn1)(Cn1cncn1)c1ccc(F)cc1F', 'inhibition', -4.29),
  ('Cc1onc(-c2c(Cl)cccc2Cl)c1C(=O)N[C@@H]1C(=O)N2[C@@H]1SC(C)(C)[C@@H]2C(=O)O', 'inhibition', -0.48),
  ('Nc1c2c(nc3ccccc13)CCCC2', 'inhibition', -0.1),
  ('C[C@H]1C[C@@H]2[C@H]([C@@H](O)C[C@@]3(C)[C@H]2CC[C@]3(O)C(=O)CO)[C@@]2(C)C=CC(=O)C=C12', 'inhibition', 1.81),
  ('CCOC(=O)[C@H](CCc1ccccc1)N[C@H]1CCc2ccccc2N(CC(=O)O)C1=O', 'inhibition', 2.98),
  ('CCCCC1=NC2(CCCC2)C(=O)N1Cc1ccc(-c2ccccc2-c2nn[nH]n2)cc1', 'inhibition', 3.75),
  ('Oc1c(Cl)cc(Cl)c2cccnc12', 'inhibition', -0.48),
  ('NCC(=O)CCC(=O)O', 'inhibition', -0.48),
  ('CS(=O)(=O)OCCCCOS(C)(=O)=O', 'inhibition', -0.48),
  ('Oc1ccc(/C=C/c2cc(O)cc(O)c2)cc1', 'inhibition', -2.76),
  ('CN(C)CCN(Cc1ccccc1)c1ccccn1', 'inhibition', -0.87),
  ('CC(C)C(=O)Nc1ccc([N+](=O)[O-])c(C(F)(F)F)c1', 'inhibition', 2.57),
  ('CC1COc2c(N3CCN(C)CC3)c(F)cc3c(=O)c(C(=O)O)cn1c23 (stereo not drawn)', 'inhibition', 2.57),
  ('O=C(c1ccccc1)c1ccc2n1CCC2C(=O)O (stereo not drawn)', 'inhibition', -7.8),
  ('CC(CN1c2ccccc2Sc2ccccc21)N(C)C (stereo not drawn)', 'inhibition', 3.34),
  ('CCc1cc(C(N)=S)ccn1', 'inhibition', -4.29),
  ('CC(=O)OCC(=O)[C@@]1(O)CC[C@H]2[C@@H]3CCC4=CC(=O)C=C[C@]4(C)[C@H]3[C@@H](O)C[C@@]21C', 'inhibition', -0.48),
  ('C[C@@H](O)[C@H]1C(=O)N2C(C(=O)O)=C(S[C@@H]3CN[C@H](C(=O)N(C)C)C3)[C@H](C)[C@H]12', 'inhibition', -0.87),
  ('COc1ccc(Cl)cc1C(=O)NCCc1ccc(S(=O)(=O)NC(=O)NC2CCCCC2)cc1', 'inhibition', 1.05),
  ('CC(C)NCC(O)c1cc(O)cc(O)c1 (stereo not drawn)', 'inhibition', -4.29),
  ('NC12CC3CC(CC(C3)C1)C2', 'inhibition', -1.24),
  ('COc1ccc2cc(CCC(C)=O)ccc2c1', 'inhibition', 1.05),
  ('Cc1ccc(-c2cc(C(F)(F)F)nn2-c2ccc(S(N)(=O)=O)cc2)cc1', 'inhibition', -0.48),
  ('C[C@]12C=CC(=O)C=C1CC[C@@H]1[C@@H]2[C@@H](O)C[C@@]2(C)[C@H]1CC[C@]2(O)C(=O)CO', 'inhibition', 0.29),
  ('O=c1[nH]cc(F)c(=O)[nH]1', 'inhibition', -0.48),
  ('C[C@]12CCC(=O)C=C1CC[C@@H]1[C@@H]2[C@@H](O)C[C@@]2(C)[C@H]1CC[C@]2(O)C(=O)CO', 'inhibition', 5.62),
  ('NS(=O)(=O)c1cc2c(cc1Cl)NC=NS2(=O)=O', 'inhibition', -1.24),
  ('CCN(CC)C(=S)SSC(=S)N(CC)CC', 'inhibition', -1.64),
  ('CCc1cccc2c3c([nH]c12)C(CC)(CC(=O)O)OCC3 (stereo not drawn)', 'inhibition', -2),
  ('CC(=O)Nc1nnc(S(N)(=O)=O)s1', 'inhibition', -2),
  ('CC(C)[N+](C)(CCOC(=O)C1c2ccccc2Oc2ccccc21)C(C)C', 'inhibition', 0.29),
  ('CCCCCCCCCCC[C@@H](C[C@@H]1OC(=O)[C@H]1CCCCCC)OC(=O)[C@H](CC(C)C)NC=O', 'inhibition', -0.1),
  ('CC[N+](C)(C)c1cccc(O)c1', 'inhibition', 0.29),
  ('OC(CCN1CCCC1)(c1ccccc1)C1CCCCC1 (stereo not drawn)', 'inhibition', -3.53),
  ('CC[C@H](C)C(=O)O[C@H]1C[C@H](O)C=C2C=C[C@H](C)[C@H](CC[C@@H](O)C[C@@H](O)CC(=O)O)[C@H]21', 'inhibition', -3.18),
  ('CCN(CC)CCOC(=O)c1ccc(N)cc1', 'inhibition', 0.29),
  ('Cc1c(OCC(F)(F)F)ccnc1CS(=O)c1nc2ccccc2[nH]1 (stereo not drawn)', 'inhibition', 1.18),
  ('CCCc1cc(=O)[nH]c(=S)[nH]1', 'inhibition', 0.29),
  ('COc1ccccc1OCC(O)COC(N)=O (stereo not drawn)', 'inhibition', -1.24),
  ('CC(C)Oc1ccc2c(=O)c(-c3ccccc3)coc2c1', 'inhibition', 5.29);

---

# run_description: glucagon-like peptide 1 release enhancers, primary assay, NCI-H716 cell line, NPC library (AID 1117341); note: reference of the scale not given here
# particulars: NCI-H716 cells, at 10 µM, stronger effect = higher value
Non-standard residues stand in square brackets, D forms with d. Residues, ends and D or L forms follow the SMILES beside them. pGlu = O=C1CC[C@@H](C(=O)O)N1
property_measured: GLP1 secretion stimulation (%)

INSERT INTO results (molecule, property_measured, test_value) VALUES
  ('CCNC(=O)[C@@H]1CCCN1C(=O)[C@H](CCCN=C(N)N)NC(=O)[C@H](CC(C)C)NC(=O)CNC(=O)[C@H](Cc1ccc(O)cc1)NC(=O)[C@H](CO)NC(=O)[C@H](Cc1c[nH]c2ccccc12)NC(=O)[C@H](Cc1cnc[nH]1)NC(=O)[C@@H]1CCC(=O)N1 ([pGlu]HWSYGLRP-NHEt)', 'GLP1 secretion stimulation', -2.8),
  ('CN=C(N)NC(=O)Nc1c(C)cccc1C', 'GLP1 secretion stimulation', -0.6),
  ('Cc1cccc(OCC(O)CNC(C)(C)C)c1C (configuration not stated)', 'GLP1 secretion stimulation', -1),
  ('CC(C)CCC[C@@H](C)[C@H]1CC[C@H]2[C@@H]3CC[C@H]4C[C@@H](O)CC[C@]4(C)[C@@H]3CC[C@]12C', 'GLP1 secretion stimulation', -1.9),
  ('Oc1cc(O)cc(O)c1', 'GLP1 secretion stimulation', -1.7),
  ('Cc1onc(-c2ccccc2)c1-c1ccc(S(N)(=O)=O)cc1', 'GLP1 secretion stimulation', 4.8),
  ('Nc1nc2c(ncn2COCCO)c(=O)[nH]1', 'GLP1 secretion stimulation', -0.5);

---

# run_description: stimulators of nuclear beta-catenin in C2C12, primary screen, imaging, WNT3A-conditioned medium, mouse C2C12, NPC library (AID 1117326); note: reference of the scale not given here
# particulars: at 10 µM, stronger effect = higher value
Listing of entries alongside the reported nuclear beta-catenin stimulation.
property_measured: nuclear beta-catenin stimulation (%)

INSERT INTO results (compound, property_measured, test_value) VALUES
  ('O=C(O)CCCc1ccccc1', 'nuclear beta-catenin stimulation', 0.2),
  ('COCCc1ccc(OCC2CO2)cc1 (stereo unspecified)', 'nuclear beta-catenin stimulation', 0.9),
  ('CCCCCCCC(=O)OCC(O)CO (stereo unspecified)', 'nuclear beta-catenin stimulation', -2),
  ('Nc1ccc(/C=C/c2ccc(N)cc2S(=O)(=O)O)c(S(=O)(=O)O)c1', 'nuclear beta-catenin stimulation', 0.5),
  ('CCCCCCCC/C=C\CCCCCCCCN', 'nuclear beta-catenin stimulation', -3.5),
  ('CC(=O)OCC(CCn1cnc2cnc(N)nc21)COC(C)=O', 'nuclear beta-catenin stimulation', 0.9),
  ('Fc1ccc([C@@H]2CCNC[C@H]2COc2ccc3c(c2)OCO3)cc1', 'nuclear beta-catenin stimulation', 2.2),
  ('NNc1nnc(NN)c2ccccc12', 'nuclear beta-catenin stimulation', 3.3),
  ('O=C(/C=C/c1ccc(O)c(O)c1)O[C@@H]1C[C@@](OC(=O)/C=C/c2ccc(O)c(O)c2)(C(=O)O)C[C@@H](O)[C@@H]1O', 'nuclear beta-catenin stimulation', 0.7),
  ('O=C(c1cc(O)c(O)c(O)c1)c1ccc(O)c(O)c1O', 'nuclear beta-catenin stimulation', 1),
  ('O=C(O)Cc1cccc(-c2cc(CCCCCCc3ccc(O[C@H]4O[C@H](CO)[C@@H](O)[C@H](O)[C@@H]4O)c(-c4cccc(CC(=O)O)c4)c3)ccc2O[C@H]2O[C@H](CO)[C@@H](O)[C@H](O)[C@@H]2O)c1', 'nuclear beta-catenin stimulation', 0.7),
  ('C[C@H](CCC(=O)O)[C@H]1CC[C@H]2[C@@H]3C(=O)C[C@@H]4CC(=O)CC[C@]4(C)[C@H]3CC(=O)[C@]12C', 'nuclear beta-catenin stimulation', -0.3),
  ('CCCCCCCCCCCCCC(=O)OC(C)C', 'nuclear beta-catenin stimulation', 1.2),
  ('OC(CCN1CCCC1)(c1ccccc1)C1CCCCC1 (stereo unspecified)', 'nuclear beta-catenin stimulation', 4.7),
  ('O=C1NC2CCCCN2C12CCN(CCCN1c3ccccc3CCc3ccc(Cl)cc31)CC2 (stereo unspecified)', 'nuclear beta-catenin stimulation', 13.1),
  ('O=C(N/N=C/c1ccccc1O)c1ccncc1', 'nuclear beta-catenin stimulation', 32.2),
  ('CC(C)C[C@@H](N)C(=O)O', 'nuclear beta-catenin stimulation', 3.4),
  ('Oc1cn2c(n1)Nc1ccc(Cl)c(Cl)c1C2', 'nuclear beta-catenin stimulation', 0.1),
  ('c1ccc2c(c1)CCCC2C1=NCCN1 (stereo unspecified)', 'nuclear beta-catenin stimulation', 4.7),
  ('O=C(OCc1ccccc1)c1ccc(O)cc1', 'nuclear beta-catenin stimulation', 4.1),
  ('CCOC(=O)OCC/C(SC(=O)OCC)=C(\C)N(C=O)Cc1cnc(C)nc1N', 'nuclear beta-catenin stimulation', 1.8),
  ('CN(C)CCC=C1c2ccccc2CCc2ccccc21', 'nuclear beta-catenin stimulation', -0.4),
  ('Nc1nc2ncc(CNc3ccc(C(=O)N[C@@H](CCC(=O)O)C(=O)O)cc3)nc2c(=O)[nH]1', 'nuclear beta-catenin stimulation', 0.8),
  ('Cc1cc(CC(=O)O)c(C)n1-c1ccc(Cl)cc1', 'nuclear beta-catenin stimulation', -0.5),
  ('O=[N+]([O-])c1nccn1CO[C@@H](CO)[C@H](O)CO', 'nuclear beta-catenin stimulation', -0.2),
  ('CC1(C)S[C@@H]2[C@H](NC(=O)Cc3ccccc3)C(=O)N2[C@H]1C(=O)O (tested in a mixture with another compound)', 'nuclear beta-catenin stimulation', 0.8),
  ('Cc1ccccc1C(=O)N1CC/C(=N\OS(=O)(=O)O)c2ccc(Cl)cc21', 'nuclear beta-catenin stimulation', 0.7),
  ('COC(=O)c1ccc(NC(C)=O)cc1OC', 'nuclear beta-catenin stimulation', -0.5),
  ('CCOc1ccc2ccccc2c1C(=O)N[C@@H]1C(=O)N2[C@@H]1SC(C)(C)[C@@H]2C(=O)O', 'nuclear beta-catenin stimulation', -0.5),
  ('Nc1ncn([C@@H]2O[C@H](CO)[C@@H](O)[C@H]2O)c(=O)n1', 'nuclear beta-catenin stimulation', 21.7),
  ('CCCCCCCC[N+](C)(C)CCCCCCCC', 'nuclear beta-catenin stimulation', -3.8),
  ('CCOc1cc(OCC)c(C(=O)CCC(=O)O)cc1OCC', 'nuclear beta-catenin stimulation', -1.4),
  ('CN(C)CCOC(c1ccccc1)c1ccccc1', 'nuclear beta-catenin stimulation', 0.5),
  ('Cc1c(Cn2ccnc2)c2ccccc2n1CCC(=O)O', 'nuclear beta-catenin stimulation', 0.7),
  ('O=C(CCN1CCC(c2ccccc2)C1)c1ccc2c(c1)OCCO2 (stereo unspecified)', 'nuclear beta-catenin stimulation', 12.8),
  ('CC(C)(C)NCC(O)COc1ccccc1OCC1CCCO1 (stereo unspecified)', 'nuclear beta-catenin stimulation', -0.3);
